# test-target: human ether-à-go-go-related gene (hERG) potassium channel (human, UniProt Q12809);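 also: peak tail current of the secondary pulse compared with the same well before compound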
# Sequence (Q12809 whole entry, looked up): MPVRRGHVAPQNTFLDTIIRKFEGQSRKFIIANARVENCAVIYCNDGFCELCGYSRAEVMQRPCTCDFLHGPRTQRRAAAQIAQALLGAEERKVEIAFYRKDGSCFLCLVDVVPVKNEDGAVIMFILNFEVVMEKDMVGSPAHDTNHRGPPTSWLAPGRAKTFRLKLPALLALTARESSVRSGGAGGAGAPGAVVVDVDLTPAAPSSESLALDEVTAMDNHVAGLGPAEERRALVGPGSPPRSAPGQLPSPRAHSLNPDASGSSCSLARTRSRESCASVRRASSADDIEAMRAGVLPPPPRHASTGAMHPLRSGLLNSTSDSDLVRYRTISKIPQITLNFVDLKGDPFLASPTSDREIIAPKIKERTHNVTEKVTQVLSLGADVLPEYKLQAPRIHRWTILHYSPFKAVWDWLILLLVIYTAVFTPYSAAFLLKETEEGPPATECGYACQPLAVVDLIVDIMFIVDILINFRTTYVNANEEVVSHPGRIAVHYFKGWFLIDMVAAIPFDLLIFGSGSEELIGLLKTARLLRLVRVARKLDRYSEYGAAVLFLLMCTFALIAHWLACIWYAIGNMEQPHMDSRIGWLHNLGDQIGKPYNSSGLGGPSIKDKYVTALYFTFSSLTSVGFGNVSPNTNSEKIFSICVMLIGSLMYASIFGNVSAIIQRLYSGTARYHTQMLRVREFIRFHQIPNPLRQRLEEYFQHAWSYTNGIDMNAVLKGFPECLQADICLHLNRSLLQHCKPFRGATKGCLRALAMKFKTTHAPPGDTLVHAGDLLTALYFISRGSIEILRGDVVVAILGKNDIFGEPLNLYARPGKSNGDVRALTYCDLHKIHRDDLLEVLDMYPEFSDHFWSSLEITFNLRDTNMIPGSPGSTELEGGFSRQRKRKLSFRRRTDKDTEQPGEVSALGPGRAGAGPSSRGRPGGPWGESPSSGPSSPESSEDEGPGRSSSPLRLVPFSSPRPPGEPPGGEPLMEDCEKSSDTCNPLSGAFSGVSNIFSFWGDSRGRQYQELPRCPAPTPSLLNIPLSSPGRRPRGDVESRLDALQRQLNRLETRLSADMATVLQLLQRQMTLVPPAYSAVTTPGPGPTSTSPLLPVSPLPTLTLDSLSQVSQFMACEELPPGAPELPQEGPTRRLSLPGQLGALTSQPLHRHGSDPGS
# method-notes: primary screen, population patch clamp on CHO cells stably expressing hERG; higher = less effect of the substance
In all, about 310,000 compounds went through this assay and about 14,000 (4.5%) showed an effect of 50% or more. Effects have a minus sign here. This excerpt belongs to a sample that is enriched for strong results.
Measured hERG current change (%, negative = inhibition) at 10uM accompanies every entry in the list below.
Write down the numeric answer in % and omit the unit.

- Cc1ccccc1OCC(=O)OCC(=O)Nc1cc(C(F)(F)F)ccc1N1CCOCC1: 12.9

Task: Could you share which hERG current change (%, negative = inhibition) at 10uM value was measured for COc1ccc(NC(C)C(=O)Nc2cc(C(F)(F)F)ccc2N2CCOCC2)c(OC)c1 (centres unmarked) ?
Output: -19.2

Task: Query O=C(COC(=O)c1ccc(O)cc1)Nc1cc(C(F)(F)F)ccc1N1CCOCC1 next
Output: -25

Task: Note, next up: O=C(COC(=O)c1ccccc1NCCO)Nc1cc(C(F)(F)F)ccc1N1CCOCC1
Output: -60.2

Task: Entry CC(=O)c1c(C)[nH]c(C(=O)OCC(=O)Nc2cc(C(F)(F)F)ccc2N2CCOCC2)c1C please
Output: -56.1
